- procedureSummary: Highest frequency of moderate liver toxicity observed during clinical trials, expressed as a percentage. [column '% BIOL' in source]
- experimentalConditions: human
Hepatotoxicity (moderate) less than 10% is criterion met; Hepatotoxicity (moderate) greater than or equal to 10% is criterion not met.

{"molecule": "C=C(OC)C(=O)Nc1cc(OC)c(OC)cc1C(=O)O[C@H]1C[C@H](O[C@@H]2C(=O)C(NC(=O)OC)=C3/C(=C\\CSSSC)[C@]2(O)C#C/C=C\\C#C[C@@H]3O[C@@H]2O[C@H](C)[C@@H](NO[C@H]3C[C@H](O)[C@H](SC)[C@@H](C)O3)[C@H](O)[C@H]2O[C@H]2C[C@H](OC)[C@@H](NC(C)C)CO2)O[C@@H](C)[C@H]1O", "classification": "criterion not met"}
{"molecule": "CN1CCN2c3ncccc3Cc3ccccc3C2C1 (stereo not drawn)", "classification": "criterion met"}
{"molecule": "Nc1c(CC(=O)O)cccc1C(=O)c1ccc(Br)cc1", "classification": "criterion met"}
{"molecule": "COC(=O)Nc1nc2ccc(C(=O)c3ccccc3)cc2[nH]1", "classification": "criterion not met"}
{"molecule": "O=C(CCCCC(=O)Nc1c(I)cc(I)c(C(=O)O)c1I)Nc1c(I)cc(I)c(C(=O)O)c1I [IODIPAMIDE]", "classification": "criterion not met"}
{"molecule": "O=C1NC(=S)NC(=O)C1C(=O)Nc1ccccc1", "classification": "criterion not met"}
{"molecule": "NCCNC(=O)c1ccc(Cl)cn1 [LAZABEMIDE]", "classification": "criterion met"}
{"molecule": "CC[C@H]1OC(=O)[C@H](C)[C@@H](O[C@H]2C[C@@](C)(OC)[C@@H](O)[C@H](C)O2)[C@H](C)[C@@H](O[C@@H]2O[C@H](C)C[C@H](N(C)C)[C@H]2O)[C@](C)(OC)C[C@@H](C)C(=O)[C@H](C)[C@@H](O)[C@]1(C)O", "classification": "criterion not met"}

---

- procedureSummary: Highest frequency of moderate liver toxicity observed during clinical trials, expressed as a percentage. [column '% BIOL' in source]
- experimentalConditions: human, Liver
readoutType: Hepatotoxicity (moderate)

{"compound": "C=C[C@H]1C[N@@]2CC[C@H]1C[C@@H]2[C@@H](O)c1ccnc2ccc(OC)cc12", "result": "2%"}
{"compound": "O=C(O)c1cn(C2CC2)c2cc(N3CCNCC3)c(F)cc2c1=O", "result": "46.4%"}
{"compound": "O=C(O)c1ccccc1O.O=C(O)c1ccccc1O.O=C(O)c1ccccc1O", "result": "0%"}
{"compound": "Cc1ccc(-c2cc(C(F)(F)F)nn2-c2ccc(S(N)(=O)=O)cc2)cc1", "result": "2%"}
{"compound": "Cc1nnc(SCC2=C(C(=O)O)N3C(=O)[C@@H](NC(=O)Cn4cnnn4)[C@H]3SC2)s1", "result": "42.9%"}
{"compound": "Oc1ncc(N(CCCl)CCCl)c(O)n1", "result": "0%"}
{"compound": "CC1CS(=O)(=O)CCN1/N=C/c1ccc([N+](=O)[O-])o1 (configuration not stated)", "result": "0%"}
{"compound": "CC(=O)O[C@H]1C(=O)[C@@]2(C)[C@H]([C@H](OC(=O)c3ccccc3)[C@]3(O)C[C@H](OC(=O)[C@H](O)[C@@H](NC(=O)c4ccccc4)c4ccccc4)C(C)=C1C3(C)C)[C@]1(OC(C)=O)CO[C@@H]1C[C@@H]2O", "result": "50%"}
{"compound": "CC(C)(C(=O)O)c1ccc(C(O)CCCN2CCC(C(O)(c3ccccc3)c3ccccc3)CC2)cc1 (configuration not stated) [FEXOFENADINE]", "result": "1.8%"}
{"compound": "O=C(O)COCCN1CCN(C(c2ccccc2)c2ccc(Cl)cc2)CC1 (configuration not stated)", "result": "3.8%"}
{"compound": "O=C1NS(=O)(=O)c2ccccc21", "result": "0%"}
{"compound": "CO[C@@]1(NC(=O)CSC[C@@H](N)C(=O)O)C(=O)N2C(C(=O)O)=C(CSc3nnnn3C)CS[C@@H]21", "result": "16.7%"}
{"compound": "Cc1ncc(C[n+]2csc(CCO)c2C)c(N)n1", "result": "0%"}
{"compound": "COc1ccc2c3c1O[C@H]1[C@@H](O)C=C[C@H]4[C@@H](C2)N(C)CC[C@@]341", "result": "0%"}
{"compound": "CCOc1cc(CC(=O)N[C@@H](CC(C)C)c2ccccc2N2CCCCC2)ccc1C(=O)O [REPAGLINIDE]", "result": "1.5%"}
{"compound": "CC(C)(C)c1ccc(C(O)CCCN2CCC(C(O)(c3ccccc3)c3ccccc3)CC2)cc1 (configuration not stated)", "result": "19.2%"}
{"compound": "CCN(CC)CCNC(=O)c1ccc(N)cc1 [PROCAINAMIDE]", "result": "0%"}
